Please go through the items and note down their pIC50.
- Experimental Target: autotaxin (Homo sapiens, UniProt Q13822)
- Construct: tissue Biocell Laboratories Inc 1121-00
- Procedure Text: Human Serum Autotaxin Assay (choline release from LPC, TOOS detection)
- Test Conditions: dialyzed human serum; substrate LPC 14:0, 300 μM; 4 hours at 37° C.; choline release read at 555 nm
pIC50: −log10 of the molar value.

What pIC50 value was documented for this molecule, Cc1[nH]c2cc(Cl)ccc2c1Sc1cncc(C(=O)O)c1 [Compound 1-1] ?
< 6.00

What does the data say about its pIC50? Entry: Cc1c(Sc2cncc(C(=O)O)c2)c2ccc(Cl)cc2n1-c1cnn(C(C)C)c1 [Compound 1-5]
> 6.52

Given the entry Cc1c(Sc2cccc(C(=O)O)n2)c2ccc(Cl)c(F)c2n1-c1cnn(C(C)C)c1 [Compound 1-13] , report its measured pIC50.
> 6.52

# input molecule: CCn1cc(-n2c(C)c(Sc3cccc(C(=O)O)n3)c3ccc(Cl)c(F)c32)cn1 [Compound 1-12] ; wanted: its pIC50
> 6.52

Quick one: pIC50 of Cc1c(Sc2cccc(C(=O)O)n2)c2ccc(Cl)cc2n1-c1cnn(C(C)C)c1 [Compound 1-14] ?
> 6.52

What value of pIC50 has been reported for the following molecule? Cc1c(Sc2cncc(C(=O)O)c2)c2ccc(Cl)cc2n1-c1cnn(C)c1 [Compound 1-3]
> 6.52

###

- Experimental Target: autotaxin (Homo sapiens)
- Construct: tissue Biocell Laboratories Inc 1121-00
- Procedure Text: Human Serum Autotaxin Assay (choline release from LPC, TOOS detection)
- Test Conditions: dialyzed human serum; substrate LPC 14:0, 300 μM; 4 hours at 37° C.; choline release read at 555 nm
- Protocol: Human Serum Autotaxin Assay Inhibition of autotaxin activity is assayed in human serum by measuring the amount of choline released from the substrate, lysophosphatidylcholine (LPC). […] The concentration of released choline in the sample is determined from a choline standard curve and is equal to the concentration of LPA produced.
pIC50: −log10 of the molar value.
Reported Property: pIC50

Fill blank: measured pIC50 of the compound CCn1cc(-n2c(C)c(Sc3cncc(C(=O)O)c3)c3ccc(Cl)cc32)cn1 [Compound 1-4] is ____.
> 6.52

For CCn1cc(-n2c(C)c(Sc3cc(C(=O)O)ccn3)c3ccc(Cl)cc32)cn1 [Compound 1-7] , what is its reported pIC50?
> 6.52

Need pIC50 of Cc1c(Sc2cc(C(=O)O)ccn2)c2ccc(Cl)cc2n1-c1cnn(C(C)C)c1 [Compound 1-8] , thanks.
6.00 to 6.52

Find the recorded pIC50 belonging to CCCn1cc(-n2c(C)c(Sc3cccc(C(=O)O)n3)c3ccc(Cl)c(F)c32)cn1 [Compound 1-15] and report it.
> 6.52

Name the reported pIC50 value associated with the compound CCn1cc(-n2c(C)c(Sc3cccc(C(=O)O)n3)c3ccc(Cl)cc32)cn1 [Compound 1-9]
> 6.52
